- System: HPRT protein
- Procedure Details: Western blot of HPRT protein in gRNA modified CEM cells
- Format: cell-based, human
- Condition Notes: after 10 days of 6-TG selection (10 uM)
Property Name: HPRT protein (Western blot)

>>> print(df.to_string())
                                  substance   reported_measurement
0  gRNA 13: sgRNA guide and PAM AGCCCCCCTTGAGCACACAGAGG, HPRT 1 target Exon 3 (listed as DNA, chemistry not given here)  remained undetectable
1  gRNA 17: sgRNA guide and PAM GTAGCCCTCTGTGTGCTCAAGGG, HPRT 1 target Exon 3 (listed as DNA, chemistry not given here)  remained undetectable

---

- Tested on: HPRT1 gene
- Procedure Details: ICE scoring (indel, knockout score) of gRNA editing in CEM cells
- Format: cell-based, human
- Description: The top candidate guide RNAs from Example 21 were screen in Jurkat cell lines (n=1) and validated in CEM cell lines (n=2). […] Following electroporation, cell viability was measured at different concentrations of 6-TG (see FIG. 36). Indel Percentage—The editing efficiency (percentage of the pool with non-wild type sequence) as determined by comparing the edited trace to the control trace. […]
Property Name: editing (ICE scoring), in words

>>> df
                                  substance  reported_measurement
0  gRNA 18: sgRNA guide and PAM TTATGCTGAGGATTTGGAAAGGG, HPRT 1 target Exon 2 (listed as DNA, chemistry not given here)     efficient editing
1  gRNA 21: sgRNA guide and PAM TATCCTACAACAAACTTGTCTGG, HPRT 1 target Exon 8 (listed as DNA, chemistry not given here)     efficient editing
2  gRNA 15: sgRNA guide and PAM GATGTGATGAAGGAGATGGGAGG, HPRT 1 target Exon 3 (listed as DNA, chemistry not given here)     efficient editing

---

- Procedure Details: 6-TG selection and 6-TG challenge of gRNA modified CEM cells (cell viability)
- Format: cell-based
- Condition Notes: human, wild type (unmodified) CEM T cell leukemia cells; wild type CEM, 6-TG at 40 uM
Property Name: viability at 40 µM

                                   molecule  reported_measurement
0  Nc1nc2nc[nH]c2c(=S)[nH]1 [6-TG, 6-thioguanine, reference compound]                  ~10%

---

- Tested on: HPRT protein
- Procedure Details: Western blot of HPRT protein in gRNA modified CEM cells
- Type: cell-based, human
- Condition Notes: after 10 days of 6-TG selection (10 uM)
Property Name: HPRT protein (Western blot)

>>> df
                                  substance                property_name   reported_measurement
0  gRNA 12: sgRNA guide and PAM GCCCCCCTTGAGCACACAGAGGG, HPRT 1 target Exon 4 (listed as DNA, chemistry not given here)  HPRT protein (Western blot)  remained undetectable
1  gRNA 22: sgRNA guide and PAM GAAGTATTCATTATAGTCAAGGG, HPRT 1 target Exon 8 (listed as DNA, chemistry not given here)  HPRT protein (Western blot)  remained undetectable

---

- Procedure Details: MTX dose response in 6-TG selected CEM cells
- Type: cell-based
- Condition Notes: human, wild type CEM T cell leukemia cells, 0.5 μM MTX, thymidine 16 μM, read-out: viable wild type (WT) cells
Property Name: viability at 3 days, 0.5 µM (%)

In [3]: df
Out[3]:
                                   compound  unit_string  reported_measurement
0  CN(Cc1cnc2nc(N)nc(N)c2n1)c1ccc(C(=O)N[C@@H](CCC(=O)O)C(=O)O)cc1 [MTX, methotrexate]            %                    60
